Data credit: patent US20210130473A1

# Tested on: TGFβ/SMAD Signaling Pathway SBE reporter cell line
# experimental_protocol: TGFb reporter assay in HEK293 SBE-LUC reporter cells (luciferase)
# Assay type: cell-based
# particulars: Homo sapiens, key of the table says IC50, read-out: EC50 (the source's name)
Exercise: state measured IC50 for each of the compounds provided.

Value of measured IC50 for the entry Cc1cccc(-c2nc(CNCc3ccccc3C#N)[nH]c2-c2ccc3ncnn3c2)n1 [Compound 20] : 100 to 1000 nM

Value of measured IC50 for the entry Cc1cccc(-c2nc(CNCc3cc(Cl)ccc3Cl)[nH]c2-c2ccc3ncnn3c2)n1 [Compound 5] : 10 to 100 nM

Value of measured IC50 for the entry Cc1cccc(-c2nc(CNCCc3c(F)cccc3F)[nH]c2-c2ccc3c(c2)OCO3)n1 [Compound 81] : 10 to 100 nM

Value of measured IC50 for the entry COC(=O)[C@@H](NCc1nc(-c2cccc(C)n2)c(-c2ccc3ncnn3c2)[nH]1)c1ccccc1 [Compound 16] : 100 to 1000 nM

Value of measured IC50 for the entry Cc1cccc(-c2nc(CNc3cccc4c3CCC4N)[nH]c2-c2ccc3ncnn3c2)n1 (stereo not shown) [Compound 1.6] : 100 to 1000 nM

Value of measured IC50 for the entry Cc1cccc(-c2nc(CNCc3ccc4ccccc4c3)[nH]c2-c2ccc3ncnn3c2)n1 [Compound 1.58] : 100 to 1000 nM

Value of measured IC50 for the entry Cc1cccc(-c2nc(CNCCCc3ccccc3)[nH]c2-c2ccc3ncnn3c2)n1 [Compound 64] : 0.1 to 10 nM

Value of measured IC50 for the entry COc1ccccc1CCNCc1nc(-c2cccc(C)n2)c(-c2ccc3nccnc3c2)[nH]1 [Compound 87] : 0.1 to 10 nM

Value of measured IC50 for the entry Cc1cccc(CNCc2nc(-c3cccc(C)n3)c(-c3ccc4ncnn4c3)[nH]2)c1 [Compound 50] : 10 to 100 nM

Value of measured IC50 for the entry Cc1cccc(-c2nc(CN3CCCCC3)[nH]c2-c2ccn3ncnc3c2)n1 [Compound 1.35] : 100 to 1000 nM

Value of measured IC50 for the entry Cc1cccc(-c2nc(CNCc3ccccc3-c3ccccc3CN)[nH]c2-c2ccc3ncnn3c2)n1 [Compound 32] : 100 to 1000 nM

Value of measured IC50 for the entry Cc1cccc(-c2nc(CN[C@@H]3c4ccccc4C[C@@H]3O)[nH]c2-c2ccc3ncnn3c2)n1 [Compound 1.44] : 10 to 100 nM

Value of measured IC50 for the entry Cc1cccc(-c2nc(CNC3CCNCC3)[nH]c2-c2ccn3ncnc3c2)n1 [Compound 1.39] : 1000 to 10000 nM

Value of measured IC50 for the entry COc1ccc(CNCc2nc(-c3cccc(C)n3)c(-c3ccc4ncnn4c3)[nH]2)cc1 [Compound 8] : 100 to 1000 nM

Value of measured IC50 for the entry Cc1cccc(-c2nc(CNCc3ccccc3-c3ccc(CNC(=O)OC(C)(C)C)cc3)[nH]c2-c2ccc3ncnn3c2)n1 [Compound 31] : 100 to 1000 nM

Value of measured IC50 for the entry Cc1cccc(-c2nc(CNc3ccc4c(c3)C(N)CC4)[nH]c2-c2ccc3ncnn3c2)n1 (stereo not shown) [Compound 1.21] : 100 to 1000 nM

---

# Tested on: TGFβ/SMAD Signaling Pathway SBE reporter cell line
# experimental_protocol: TGFb reporter assay in HEK293 SBE-LUC reporter cells (luciferase)
# Type: cell-based
# particulars: Homo sapiens, key of the table says IC50, read-out: EC50 (the source's name)
pIC50: −log10 of the molar value.
Exercise: state measured pIC50 for each of the molecules provided.

Value of measured pIC50 for the entry "Cc1cccc(-c2nc(CNCCc3cccc(F)c3)[nH]c2-c2ccc3ncnn3c2)n1" : 8.00 to 10.00

Value of measured pIC50 for the entry "COc1ccccc1CCNCc1nc(-c2cccc(C)n2)c(-c2ccc3ncccc3n2)[nH]1" : 8.00 to 10.00

Value of measured pIC50 for the entry "Cc1cccc(-c2nc(CNCc3ccccc3Oc3ccccc3)[nH]c2-c2ccc3ncnn3c2)n1" : 8.00 to 10.00

Value of measured pIC50 for the entry "Cc1cccc(-c2nc(CNc3cccc4c3CCNC4)[nH]c2-c2ccc3ncnn3c2)n1" : 6.00 to 7.00
